Biological target: Dickkopf-related protein 1 (Homo sapiens)
Experiment: DKK1 binders on small-molecule microarrays, primary screen, biochemical, small-molecule microarray, 635 nm fluorescence scan (AID 1106);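 further: score merges emission near 667 nm with signal to noise over three replicate slides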
Details: DKK1 binding, higher = more signal

{"columns": ["compound", "experimental.target", "composite z-score"],
 "data": [
  ["CC(C)C(O)C1C=CC2C(=O)N(C)C(=O)C2N1Nc1ccccc1 (centres undefined)", "Dickkopf-related protein 1 (Homo sapiens)", 0.4],
  ["O=C(CS)NCCCCCCNC(=O)[C@H]1C[C@H]2C(=O)N[C@@H](Cc3ccccc3)C(=O)N2[C@H]1c1cccc(OCCO)c1", "Dickkopf-related protein 1 (Homo sapiens)", 1.34],
  ["O=C1O[C@@H](c2ccccc2)[C@@H](c2ccccc2)N2[C@@H](c3ccc(O)cc3)[C@]3(C(=O)Nc4ccc(C#CCCO)cc43)[C@@H](C(=O)Nc3nc4ccccc4s3)[C@H]12", "Dickkopf-related protein 1 (Homo sapiens)", -0.17],
  ["CC1CC/C=C\\[C@H]2OC34C=CCN(CCN5CCOCC5)C(=O)[C@H]3N(CCO)C(=O)[C@@H]4C2C(=O)O1 (some centres undefined)", "Dickkopf-related protein 1 (Homo sapiens)", -0.137]
]}

----------
System: Human papillomavirus type 1a E7 protein (residues 1-88)
Assay: HPV1a E7 small-molecule binders, primary screen, biochemical, small-molecule microarray, residues 1-88, 635 nm (AID 1129)
Conditions: small-molecule microarray binding, fluorescence 635 nm; higher = more signal
We use 0.7 as the dividing line for composite z-score: on or above the line is 1.0, below is 0.0.

{"columns": ["molecule", "assigned.category"],
 "data": [
  ["CC(CO)N1C(=O)[C@@H]2C3C(=O)OCCC/C=C\\[C@H]3OC23C=CCN(Cn2nnc4ccccc42)C(=O)[C@@H]13 (stereo partly drawn)", 0.0],
  ["C=C(/C(=C/C[C@@H](OC(=O)c1ccncc1)c1ccc(OCCO)cc1)c1cc(C(=O)OC)ccc1OC)C(C)C", 1.0],
  ["O=c1cccc(-c2cccc(Cl)c2)o1", 1.0],
  ["CN(C)C(=O)[C@@]1(Cc2ccccc2N=[N+]=[N-])COC(c2ccc(OCCCO)cc2)=N1", 1.0],
  ["C=CC[C@@H](OC(=O)Nc1ccc(OC)cc1)c1ccc(OCCO)cc1", 0.0],
  ["COc1cc(CO)cc(I)c1O[C@H]1C=C(C(=O)NCCO)C[C@@H](N(Cc2ccc(F)cc2)C(=O)C2CCCO2)[C@@H]1O (stereo partly drawn)", 0.0],
  ["O=C(O)[C@H]1C[C@H]2C(=O)N3CCC[C@H]3C(=O)N2[C@H]1c1cccc(OCCO)c1", 0.0],
  ["CCOC(=O)[C@H]1C/C=C/C[C@H](C(=O)OCC)C(=O)O[C@H]2[C@@H](OC)O[C@H](CO)[C@@H](OC(=O)Nc3ccc(OC)cc3)[C@@H]2OC1=O", 1.0]
]}

----------
Test: E. coli growth modulation, two-sided OD650, primary screen, E. coli filamentation project, strain DRC41, 24 h (AID 1093);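 further: MC1000 strain lacking acrAB efflux and sulA so SOS filamentation is blocked; test concentration not given here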
Conditions: OD650, 24 h, higher = more signal, called active from +8 up or from −8 down
Classify by measured z-score: T if it is equal to or exceeds -0.1, F if it is smaller.

{"columns": ["compound", "assigned.category"],
 "data": [
  ["CCOC(=CC(=O)OC)CC(O)c1cccc(Cl)c1 (stereo not given)", "T"],
  ["C=CC[C@@]1(C(=O)O)N=C(c2ccc(OCCCO)cc2)O[C@@H]1c1ccccc1", "T"],
  ["CC(C)(C)OC(=O)CC[C@@]1(C(=O)O)N=C(c2ccc(OCCCO)cc2)O[C@@H]1c1ccccc1CN=[N+]=[N-]", "T"],
  ["NC(=O)NCC#Cc1ccc2c(c1)[C@]1(C(=O)N2)[C@H](c2ccc(O)cc2)N2[C@H](c3ccccc3)[C@H](c3ccccc3)OC(=O)[C@H]2[C@@H]1C(=O)Nc1nc2ccccc2s1", "T"],
  ["CC(=O)n1cc(C(O)C2C=CC3C(=O)N(c4ccccc4)C(=O)C3N2Nc2ccccc2)c2ccccc21 (stereo not given)", "F"],
  ["O=C1NC(=O)C2C1C=CC(C(O)c1ccc(Br)cc1)N2Nc1ccccn1 (stereo not given)", "F"],
  ["O=C1NCC(=O)N2[C@@H]1C[C@@H](C(=O)O)[C@H]2c1ccc(O)cc1", "T"],
  ["O=C1c2ccccc2[C@](Cc2ccccc2I)(C(=O)NCc2ccccc2)[C@H](c2ccc(CO)cc2)N1C1CCCCC1", "F"],
  ["COC(=O)C1(Cc2ccccc2)C=C2C(=C(c3ccccc3)C(=O)C2C)CN1 (stereo not given)", "F"],
  ["COc1cc2c(cc1OC)CN(C(=O)[C@H]1[C@@H]3C(=O)O[C@@H](c4ccccc4)[C@@H](c4ccccc4)N3[C@@H](c3ccc(OCCO)cc3)[C@]13C(=O)Nc1ccc(C#CC4(O)CCCCCC4)cc13)CC2", "T"],
  ["CCOC(=O)C1=CC[C@@H](c2ccccc2)N(S(=O)(=O)c2ccc(C)cc2)C1", "F"],
  ["COCCOC(=O)N1C(=O)[C@@]2(c3cc(C#CC4(O)CCCCCC4)ccc31)[C@H](c1ccccc1OCCO)N1[C@H](c3ccccc3)[C@H](c3ccccc3)OC(=O)[C@H]1[C@@H]2C(N)=O", "F"],
  ["CC(=O)n1cc(C(O)C2C=CC3C(=O)N(Cc4ccccc4)C(=O)C3N2n2cnnc2)c2ccccc21 (stereo not given)", "F"],
  ["COC(=O)[C@@]1(Cc2ccc(OC)cc2)[C@H]2c3cc(C(=O)N4CCCC4)n(CCc4cc5ccccc5[nH]4)c3C[C@H]2CN1C(=O)c1ccccc1", "F"],
  ["CC=CC(O)C1C=CC2C(=O)N(C)C(=O)C2N1Nc1ccc([N+](=O)[O-])cc1[N+](=O)[O-] (stereo not given)", "F"],
  ["CCCC=C(CCC)[C@@H](NP(=O)(c1ccccc1)c1ccccc1)c1ccc(C(F)(F)F)cc1", "F"],
  ["O=C1OCC=C[C@H]2OC34C=CCN(Cn5nnc6ccccc65)C(=O)[C@H]3N(CCCCCCO)C(=O)[C@@H]4[C@@H]12 (stereo not given in full)", "F"],
  ["C=C[C@@H](C)[C@H](OC(=O)Nc1ccc(SC)cc1)c1ccc(OCCO)cc1", "T"],
  ["O=C(NC1CC1)[C@@H]1c2ccccc2C(=O)N(Cc2ccccc2)[C@H]1c1ccc(CO)cc1", "T"],
  ["C=C(COC)/C(=C/C[C@@H](OC(=O)c1ccncc1)c1cccc(OCCO)c1)c1cnc2ccccc2c1", "T"],
  ["O=C1O[C@@H](c2ccccc2)[C@@H](c2ccccc2)N2[C@@H](c3ccc(O)cc3)[C@]3(C(=O)Nc4ccccc43)[C@@H](C(=O)Nc3nc4ccccc4s3)[C@H]12", "T"],
  ["CCOC(=O)C[C@H]1[C@H](OC(=O)c2ccc(-c3ccccc3)cc2)[C@@H](NC(=O)c2ccc3ccccc3n2)c2cc(OCCCO)ccc2N1C(=O)c1ccccc1", "F"],
  ["C=C(COC)/C(=C/C[C@@H](OC(=O)c1ccncc1)c1ccc(CO)o1)c1cnc2ccccc2c1", "T"],
  ["CCN(CC)c1ccc(N2CC=CC34O[C@@H]5/C=C\\CCC(C)OC(=O)C5[C@H]3C(=O)N(CCO)[C@@H]4C2=O)cc1 (stereo not given in full)", "T"],
  ["C=CCOC(=O)[C@@H]1[C@H]2C(=O)O[C@H](c3ccccc3)[C@H](c3ccccc3)N2[C@H](c2ccc(OCCOC(=O)[C@H]3C[C@H]4C(=O)N[C@@H](CCCCNC(C)=O)C(=O)N4[C@H]3c3cccc(OCCO)c3)cc2)[C@@]12C(=O)Nc1ccc(I)cc12", "T"],
  ["O=C(O)[C@]1(Cc2ccccc2)N=C(c2ccc(OCCCO)cc2)O[C@@H]1c1ccccc1", "T"],
  ["C=CCN1Cc2ccccc2C[C@@]2(N=C(c3ccc(OCCCO)cc3)O[C@H]2c2ccccc2)C1=O", "T"],
  ["C=C[C@@H](COC(C)=O)NS(=O)(=O)c1ccc(Br)cc1", "F"],
  ["NC(N)=NCc1cn(CCc2c[nH]c3ccccc23)nn1", "F"]
]}
